# study_system: human GPR40 (Homo sapiens)
# Sequence (O14842 whole entry): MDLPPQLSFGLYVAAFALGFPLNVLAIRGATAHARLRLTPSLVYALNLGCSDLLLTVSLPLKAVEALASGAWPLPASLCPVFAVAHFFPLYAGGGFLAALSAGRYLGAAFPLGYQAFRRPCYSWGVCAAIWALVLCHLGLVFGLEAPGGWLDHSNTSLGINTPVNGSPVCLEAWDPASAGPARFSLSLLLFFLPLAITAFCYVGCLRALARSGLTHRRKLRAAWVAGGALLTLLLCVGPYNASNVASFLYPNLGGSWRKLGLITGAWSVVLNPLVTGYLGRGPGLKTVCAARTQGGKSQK
# assay_comment: Ca2+ mobilization (FLIPR) in a stable GPR40-expressing cell; GPR40 agonist activity
# condition_context: compound concentration corresponding to 50% PosiC, 100% = intracellular calcium level induced by 80 μM palmitic acid
pEC50: −log10 of the molar value. Counter-ions that a name gives are not always drawn.
observation_type: pEC50

Examples with their reported pEC50 follow.
CC#C[C@@H](CC(=O)O)c1ccc(OCC2=CCCC3(CCCCC3)C2)cc1 [Example 119]    6.00 to 7.00
O=C(O)CCc1ccc(OCC2CCCC3(CCCCCC3)C2)cc1 (racemic)    5.00 to 6.00
O=C1NC(=O)C(Cc2ccc(OCC3CCCC4(CCCCC4)C3)cc2)S1 (racemic)    ≤ 5.00
CCOC(CC(=O)O)c1ccc(OCC2CCCC3(CCCCC3)C2)cc1 (racemic)    6.00 to 7.00
CC#C[C@@H](CC(=O)O)c1ccc(OCC2=C[C@]3(CCC2)CCC(=O)C3)cc1 [Example 103, sodium salt]    6.00 to 7.00

# pEC50 (compound: `CC#C[C@@H](CC(=O)O)c1ccc(OCC2=CCC3(CCCCC3)CC2)cc1` ) is 6.00 to 7.00

Looking up CC1(C)C=CC2(CCCC(COc3ccc(CCC(=O)O)cc3)C2)CC1 (racemic) , I see its pEC50 listed as 5.00 to 6.00

// pEC50 lookup, compound = CC1(C)CCC=CC12CCCC(COc1ccc(CCC(=O)O)cc1)C2 (racemic) , result: 6.00 to 7.00

In plain terms, C#CC(CC(=O)O)c1ccc(OCC2CCCC3(CCCCC3)C2)cc1 (racemic) has a documented pEC50 of 5.00 to 6.00
